Reported Euclidean distance values are given for each entry in this list.
system: HEPG2; assay: Euclidean distance of Cell Painting phenotypic profile (signed KS, 77 features) to DMSO centroid (dimensionless distance); 5 or 10 uM (library dependent); higher = stronger phenotypic change vs DMSO (phenoactivity); conditions: 48 h
Structures can show the parent of a compound that is named as a salt.
Give a plain numeric answer without units written out.

Some solved entries appear below for comparison.
O=C(O)c1ccccc1C(=O)Nc1ccc(S(=O)(=O)Nc2nccs2)cc1
0.685
CC(C)c1nc(N(C)S(C)(=O)=O)nc(-c2ccc(F)cc2)c1/C=C/[C@@H](O)C[C@@H](O)CC(=O)O
1.03
NCCCC[C@H](NC(=O)[C@@H]1CCCN1C(=O)[C@@H]1CSSC[C@H](NC(=O)CNC(=O)CNC(=O)CN)C(=O)N[C@@H](Cc2ccc(O)cc2)C(=O)N[C@@H](Cc2ccccc2)C(=O)N[C@@H](CCC(N)=O)C(=O)N[C@@H](CC(N)=O)C(=O)N1)C(=O)NCC(N)=O [Terlipressin Acetate]
0.531
O=C(NC(Cc1cc(=O)[nH]c2ccccc12)C(=O)O)c1ccc(Cl)cc1 (stereo not given) [Rebamipide]
1.97
COc1cc(C2Oc3cc([C@H]4Oc5cc(O)cc(O)c5C(=O)[C@@H]4O)ccc3OC2CO)ccc1O (stereo not given in full)
0.547

Challenge: What value of Euclidean distance has been recorded for this entry: "CNC[C@H](O)[C@@H](O)[C@H](O)[C@H](O)CO"
Response given: 0.652

Challenge: What value of Euclidean distance has been reported for the following molecule? "COC1CCN(C(=O)c2cc(Cc3n[nH]c(=O)c4ccccc34)ccc2F)CC1"
Response given: 1.36

Challenge: Data request, read-out Euclidean distance, for C[C@@H](O[C@H]1OCCN(Cc2nn(P(=O)(O)O)c(=O)[nH]2)[C@H]1c1ccc(F)cc1)c1cc(C(F)(F)F)cc(C(F)(F)F)c1 [Fosaprepitant dimeglumine salt]
Response given: 1.4

Challenge: Need Euclidean distance of "CC(C)(Oc1ccc(C(=O)c2ccc(Cl)cc2)cc1)C(=O)O" , thanks.
Response given: 0.698

Challenge: Euclidean distance lookup needed for "CSCC[C@H](N)C(=O)O" , thanks.
Response given: 0.685

Challenge: Fill in the blank: the reported Euclidean distance of "Cc1cnc(Nc2ccc(OCCN3CCCC3)cc2)nc1Nc1cccc(S(=O)(=O)NC(C)(C)C)c1" is ____.
Response given: 2.96

Challenge: Would you kindly share the measured Euclidean distance for COc1ccc2[nH]c([S+]([O-])Cc3ncc(C)c(OC)c3C)nc2c1 (stereo not given) [Omeprazole Sodium] ?
Response given: 0.957

Challenge: Looking for the measured Euclidean distance of O=C1N=C(O)NC1(c1ccccc1)c1ccccc1 [Phenytoin Sodium] , can you help?
Response given: 0.976

Challenge: Quick one: Euclidean distance of "COC(=O)N[C@H](C(=O)N1CCC[C@H]1c1ncc(-c2ccc(-c3ccc(-c4cnc([C@@H]5CCCN5C(=O)[C@@H](NC(=O)OC)C(C)C)[nH]4)cc3)cc2)[nH]1)C(C)C" ?
Response given: 0.904

Challenge: For the molecule shown here, CC(=O)Nc1ccccc1 [Acetanilide] , give the reported Euclidean distance.
Response given: 0.768
